Test Target: T1, TNF-R2 (a protein having the amino acid sequence, Accession No. M55994 registered at GENBANK) (UniProt P20333 23-257, limits assumed)
T1 construct: also called TNF receptor with 75 kilo daltons
T1 sequence (looked up): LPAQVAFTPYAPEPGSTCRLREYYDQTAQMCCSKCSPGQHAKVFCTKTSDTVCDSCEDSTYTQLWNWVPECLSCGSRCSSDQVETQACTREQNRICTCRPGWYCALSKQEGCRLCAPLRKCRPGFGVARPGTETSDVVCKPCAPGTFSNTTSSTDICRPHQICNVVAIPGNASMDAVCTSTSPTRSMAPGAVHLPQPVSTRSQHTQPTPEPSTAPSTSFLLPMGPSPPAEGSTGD
Test: SPR (BIACORE 2000), receptor on sensor tip; grade 1 = 0.001 to 0.1 time that of recombinant TNF-α
Listed here are binders together with their documented binding affinity relative to recombinant TNF-α.

>  <Binder>
TNF mutant protein of clone No. 19 (ligand, Mutant of lysine-replaced TNF, made in E. coli) VRSSSRTPSDMPVAHVVANPQAEGQLQWLNRRANALLANGVELRDNQLVVPSEGLYLIYSQVLFSGQGCPSTHVLLTHTISRISYNYNGPVNLLSAIRSPCQRETPEGAEANPWYEPIYLGGVFQLEPGDRLSAEINRPDYLDFAESGQVYFGIIAL

>  <Observed Value>
0.001 to 0.1 fold

$$$$

Now for another entry.
Return reported binding affinity relative to recombinant TNF-α; argument: TNF mutant protein of clone No. 29 (ligand, Mutant of lysine-replaced TNF, made in E. coli) VRSSSRTPSDMPVAHVVANPQAEGQLQWLNRRANALLANGVELRDNQLVVPSEGLYLIYSQVLFSGQGCPSTHVLLTHTISRITEQYSHPVNLLSAIRSPCQRETPEGAEANPWYEPIYLGGVFQLEPGDRLSAEINRPDYLDFAESGQVYFGIIAL 0.001 to 0.1 fold
